target: … (Plasmodium falciparum); experiment: SPR, antibody on chip
Could you please report measured pKd for the items listed next?
Field pKd (float): negative decimal logarithm of the concentration in molar.

Item under review: AB-007046 (antibody, V domains shown) VH: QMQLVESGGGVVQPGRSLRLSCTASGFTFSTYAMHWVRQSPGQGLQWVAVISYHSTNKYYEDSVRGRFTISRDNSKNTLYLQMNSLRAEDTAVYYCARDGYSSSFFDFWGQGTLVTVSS VL: DIQMTQSPSTLSASVGDRVAITCRASQSISRWLAWYQQQPGKAPKLLMSGASVLESGVPSRFSGSGSGTEFTLTISSLQPDDFATYYCQHYYSYFVTFGQGTKVEIK . Reported pKd?
4.94

Quick one: pKd for AB-007072 (antibody, V domains shown) VH: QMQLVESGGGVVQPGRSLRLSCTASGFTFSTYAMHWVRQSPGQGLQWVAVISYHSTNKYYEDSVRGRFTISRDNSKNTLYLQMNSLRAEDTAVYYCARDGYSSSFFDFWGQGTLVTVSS VL: DIQMTQSPSTLSASVGDRVAITCRASQSISRWLAWYQQQPGKAPKLLMSGASNLESGVPSRFSGSGSGTEFTLTISSLQPDDFATYYCQHYNSYFVTFGQGTKVEIK ?
4.41
